# System: RSV (Long)
# procedureDetails: RSV cytopathic effect (CPE)-based viral replication assay
# Assay type: cell-based, respiratory syncytial virus (RSV)
# testContext: human respiratory syncytial virus, HEp-2, 72 h, HEp-2 cells infected with RSV Long at MOI 0.015; 3 days at 37° C.; cell viability by CellTiter-Glo luminescence; read-out: EC50 (nm)
pEC50: −log10 of the molar value.
pEC50 less than 8 is satisfied; pEC50 greater than or equal to 8 is not satisfied.

>>> assignedcategory("N#Cc1ccc(-c2c(CN3C(=O)C4(CCN(C(=O)OCCO)CC4)c4ccncc43)ncc3ccccc23)cn1")
"not satisfied"
>>> assignedcategory("NC(c1ccc(-c2c(CN3C(=O)C4(CCN(C(=O)C5(N)CC5)CC4)c4ccncc43)ncc3ccccc23)cn1)C(F)(F)F (stereo not drawn)")
"satisfied"
>>> assignedcategory("CS(=O)(=O)c1ccc(-c2c(Cn3c(=O)n(C4CC4)c4ccncc43)ncc3ccccc23)cc1 [Example 69d]")
"not satisfied"
>>> assignedcategory("COC(=O)N1CC2(CC(n3c(=O)n(Cc4ncc5ccccc5c4CCCCO)c4ccccc43)C2)C1")
"satisfied"
>>> assignedcategory("CC(C)(O)C(=O)N1CCC2(CC1)C(=O)N(Cc1ncc3ccccc3c1-c1cccnc1)c1cnccc12")
"not satisfied"

Record NCC(N1CC2(C1)C(=O)N(Cc1ncc3ccccc3c1-c1cccnc1)c1ccccc12)C(F)(F)F (stereo not drawn) : is its pEC50 strictly below 8?
not satisfied

Record CS(=O)(=O)N1CC2(C1)C(=O)N(Cc1ncc3ccccc3c1CCCCO)c1ccccc12 : is its pEC50 strictly below 8?
not satisfied

Record CS(=O)(=O)N1CCC2(CC1)C(=O)N(Cc1ncc3cc(Cl)ccc3c1-c1cccnc1)c1cnccc12 [Example 160c] : is its pEC50 strictly below 8?
not satisfied

Record NC1(C(=O)N2CC3(C2)C(=O)N(Cc2ncc4ccccc4c2-c2cncc(F)c2)c2ccccc23)CC1 : is its pEC50 strictly below 8?
satisfied

Record Cc1noc(C)c1-c1c(CN2C(=O)C3(CCN(C(=O)C4(N)CC4)CC3)c3ccncc32)ncc2ccccc12 [Example 130c] : is its pEC50 strictly below 8?
satisfied

Record CC(C)(C)OC(=O)N1CC2(C1)C(=O)N(Cc1ncc3ccccc3c1CCCCO)c1ccccc12 [Example 36c] : is its pEC50 strictly below 8?
not satisfied
